Task for the reader: assign each of the following binders its reported SPOT intensity.
Target: T1, Myo5, Q04439
T1 sequence (Q04439 1072-1160, looked up): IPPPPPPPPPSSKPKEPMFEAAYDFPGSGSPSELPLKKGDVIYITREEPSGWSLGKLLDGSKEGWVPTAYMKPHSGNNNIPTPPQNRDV
Assay: SPOT array
Conditions: median of control spots 471
Answers are plain numbers.

Look up SPOT intensity for the entries below, preserving their order.
1. QQEQNTPPLPPKPKS
2. RKNRAPPQRPRFNRD
3. VQKRKLPLPGSIASA
4. AKDLIVPRRPEWNEG
5. QFDLKMPSKPIHNLK
6. NENKKLPPAPTVFGL
7. TKFRISLGLPVGAIM

Result ::
[0, 3, 0, 624, 29, 0, 14]

Look up SPOT intensity for the entries below, preserving their order.
1. NMLKKKPLKKPLKRF
2. PPPPPPPPPPPLPQS
3. KRKRFNLLLPKPYLT
4. RRSKSLPTTPGIRSG
5. EEEEEHPPLPARRKS
6. TSIEIPKRSPLRFTS

Result ::
1. 1
2. 489
3. 0
4. 0
5. 0
6. 2

Look up SPOT intensity for the entries below, preserving their order.
1. RPKRRAPPPVPKKPS
2. AHFQPQRTAPKPPIS
3. TYNRTAFQIPGDQSI
4. APKREAPKPPANTSP
5. LKVTPGRRAPTISKI
6. NNNKMRPHLPPLSSG
7. RTRRRPPPPPIPSTQ
8. YRRKSIPFAPHQITA

Result ::
1: 232; 2: 104; 3: 1; 4: 126; 5: 6; 6: 7; 7: 243; 8: 0
